tested on: Quadruplex DNA; assay: Binding affinity to human c-KIT1 G4-quadruplex DNA (unknown origin) by UV- vis spectrophotometric analysis; format: nucleic-acid assay
Measured Property: Ka

Solved entries (count: 3):
query: Input C[N+](C)(C)CC(=O)Nc1ccc2c(c1)C(=O)c1ccc(NC(=O)C[N+](C)(C)C)cc1C2=O , output reported Ka.
result: 0.11 10^6/M

query: Quickly give me recorded Ka for Cn1cccc1C(=O)NCCC[N+](C)(C)CC(=O)Nc1ccc2c(c1)C(=O)c1ccc(NC(=O)C[N+](C)(C)CCCNC(=O)c3cccn3C)cc1C2=O.[Cl-].[Cl-]
result: 0.6 10^6/M

query: Write down Ka measured for item Cn1cc(NC(=O)c2cccn2C)cc1C(=O)NCCC[N+](C)(C)CC(=O)Nc1ccc2c(c1)C(=O)c1ccc(NC(=O)C[N+](C)(C)CCCNC(=O)c3cc(NC(=O)c4cccn4C)cn3C)cc1C2=O
result: 1.3 10^6/M

Continuing:
query: Report Ka for Cn1cc(NC(=O)c2cc(NC(=O)c3cccn3C)cn2C)cc1C(=O)NCCC[N+](C)(C)CC(=O)Nc1ccc2c(c1)C(=O)c1ccc(NC(=O)C[N+](C)(C)CCCNC(=O)c3cc(NC(=O)c4cc(NC(=O)c5cccn5C)cn4C)cn3C)cc1C2=O
result: 3.1 10^6/M
